Value source: PubChem BioAssay AID1159580

- assaySummary: chemical genetic growth profiling, strain panel (AID 1159580);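 note: tested at 20 µM; growth read once vehicle control cultures reached saturation at 30 °C; 1 = growth at the plate median or of vehicle wells; lower values mean less growth of the strain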
- testContext: S. cerevisiae deletion strains, growth OD, locus YBR160W, strain CDC28
The whole screen tested about 5,500 compounds, of which about 2,000 (36%) were called active. Another 18% or so got no clear call; they are omitted. Cut-off read from the data, not from the text of the source: active = normalized growth mostly below about 0.91 (no sharp cut-off); inconclusive = no clear call, values can overlap the other calls; inactive = mostly above about 0.92. The list shows a part of the results.
Outcome codes: yes (1) (active), no (0) (inactive)

# compound, className
rows = [
    ("O=C(NOC(=O)c1ccccc1)c1ccccc1", "yes (1)"),
    ("COC(=O)C1=C(Nc2ccccc2NS(=O)(=O)c2ccc(C(F)(F)F)cc2Cl)CSC1", "no (0)"),
    ("Brc1ccc(-c2csc(-c3ccncc3)n2)cc1", "no (0)"),
    ("NC(=S)N/N=C1/CCCc2ccccc21", "no (0)"),
    ("CCOC(=O)c1ccc(Cl)c(N=Cc2cc(Cl)cc(Cl)c2O)c1", "no (0)"),
    ("Cc1ccc(-c2csc(-c3ccncc3)n2)cc1", "no (0)"),
    ("Cc1onc(-c2c(F)cccc2Cl)c1/C(N)=N\\OC(=O)c1ccc(C(C)(C)C)cc1", "no (0)"),
    ("Clc1ccc(SCc2ccsc2-c2ncns2)cc1", "no (0)"),
    ("N#CSCC(=O)c1ccccc1", "yes (1)"),
    ("N/C(Cc1cccc2ccccc12)=N/OC(=O)c1ccc(Cl)cc1", "no (0)"),
    ("C#CCSC1=NNC(c2ccccn2)S1 (stereo unspecified)", "no (0)"),
    ("OC(COc1ccc(F)cc1)(c1ccc(Cl)cc1)c1ccc(Cl)cc1", "no (0)"),
    ("O=C(Nc1ccc(F)cc1F)c1cc(Cl)c(-n2cccc2)c(Cl)c1", "no (0)"),
    ("Cc1ccc(-n2cccc2)c(NS(=O)(=O)c2ccc(-c3ccno3)s2)c1", "no (0)"),
    ("CSc1n[nH]c(-c2cc(C(C)(C)C)oc2C)c1C#N", "no (0)"),
    ("Cc1c(C)c(C)c(C(=O)c2ccc(N=Cc3cc(Cl)cc(Cl)c3O)cc2)c(C)c1C", "no (0)"),
    ("CC(C)(C)c1cc(C(=O)Nc2ccc3c(c2)OCO3)n(Cc2ccc(F)cc2)n1", "no (0)"),
    ("Clc1ccc(CN2CCN(c3cccc4[nH]ccc34)CC2)cc1Cl", "no (0)"),
    ("COc1c(Br)csc1C(=O)O/N=C(/N)c1cc(C(F)(F)F)cc(C(F)(F)F)c1", "no (0)"),
    ("O=[N+]([O-])c1cccc(C2CC(c3ccccc3)=Nc3ccccc3S2)c1 (stereo unspecified)", "no (0)"),
    ("Cc1nn(-c2cccc(Cl)c2)c2oc(=O)cc(C(F)(F)F)c12", "no (0)"),
]
